Test system: PfYRS knockdown line
Experiment description: Growth inhibition of aptamer-regulatable PfYRS knockdown line (luciferase, 72 h)
Assay type: cell-based, Plasmodium falciparum
Condition parameters: Plasmodium falciparum, no aTc; read-out: IC50 against PfYRS knockdown line
Readout label: IC50 (nM)

| Compound | Value observed |
| --- | --- |
| Nc1ncnc2c1c(OC(F)F)nn2[C@@H]1O[C@H](COS(N)(=O)=O)[C@@H](O)[C@H]1O [ML901] | 0.3 |

###

Tested on: protein translation in P. falciparum (Cam3.II-rev) schizonts
Experiment description: Protein translation assay (O-propargyl-puromycin incorporation)
Assay type: cell-based, Plasmodium falciparum
Condition parameters: Plasmodium falciparum, read-out: IC50 (Translation)
pIC50: −log10 of the molar value.

| Compound | pIC50 |
| --- | --- |
| C[C@@H]1C[C@@H]([C@H](O)CC2CC(=O)NC(=O)C2)C(=O)[C@@H](C)C1 [cycloheximide] | 5.70 |

Source: paper PMC7613620
